# TARGET_DESC: T1, His9-hMSR1 (human MSR1 extracellular domain) (Homo sapiens, UniProt P21757)
# T1 construct: human MSR1 extracellular domain expressed with a N-terminal nonahistidine tag; His9 (nonahistidine) (N); purchased R&D Systems 2708-MS
# T1 sequence (P21757 77-451 limits assumed): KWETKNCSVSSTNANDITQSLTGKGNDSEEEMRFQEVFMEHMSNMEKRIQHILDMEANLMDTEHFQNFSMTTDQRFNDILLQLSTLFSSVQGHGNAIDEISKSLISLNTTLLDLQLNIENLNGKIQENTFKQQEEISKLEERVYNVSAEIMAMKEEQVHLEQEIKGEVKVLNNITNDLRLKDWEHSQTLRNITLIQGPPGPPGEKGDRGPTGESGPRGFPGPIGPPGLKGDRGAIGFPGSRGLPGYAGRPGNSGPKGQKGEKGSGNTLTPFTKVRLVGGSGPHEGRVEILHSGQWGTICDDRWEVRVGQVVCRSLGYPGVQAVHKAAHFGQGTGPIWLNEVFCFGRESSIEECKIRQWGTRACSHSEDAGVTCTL
# ASSAY_TEXT: Biacore surface plasmon resonance binding kinetics of anti-MSR1 mAbs, antibody-capture format
# EXPERIMENTAL_PARAMETERS: 25° C.; analyte His9-hMSR1; antibody-capture format; NB = no binding observed
ENDPOINT: ka (M⁻¹ s⁻¹)

H1H27731P-N297Q: one of "Twelve anti-MSR1 antibodies"; "made with an N297Q single point mutation in human Fcγ portion" (antibody, V domains shown) VH: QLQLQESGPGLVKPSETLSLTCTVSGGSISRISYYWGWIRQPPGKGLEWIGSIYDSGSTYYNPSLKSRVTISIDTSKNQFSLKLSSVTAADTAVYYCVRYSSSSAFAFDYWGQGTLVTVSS VL: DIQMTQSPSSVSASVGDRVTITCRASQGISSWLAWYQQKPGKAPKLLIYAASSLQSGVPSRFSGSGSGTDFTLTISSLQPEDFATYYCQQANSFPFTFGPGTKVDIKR    129000

Numbers sourced from patent US12497460B2.
